# test_target: CA IX (Homo sapiens)
# protocol_summary: biochemical
# recorded_conditions: library compounds with IDs A… and B…; from observed Ki (nM)
Measured log10 of Ki in nM, listed per entry.

# annotated cases, reported log10 of Ki in nM shown
structure_string	result
Nc1cc(Nc2ccc(S(N)(=O)=O)cc2)nc(N)n1	0.591
Cc1cc(C)c(S(=O)(=O)Nc2cccc(C3C4=C(CC(C)(C)CC4=O)N(c4ccc(S(N)(=O)=O)cc4)C4=C3C(=O)CC(C)(C)C4)c2)c(C)c1	1.954
N#Cc1c(-c2ccc(Br)cc2)cn(-c2ccc(S(N)(=O)=O)cc2)c1NC(=O)c1ccc(Br)cc1	0.724

Shifting focus to the compound that follows.
// fetch log10 of Ki in nM given entry CCOC(=O)c1ccc(NC(=O)NNC(=O)c2ccc(S(N)(=O)=O)cc2)cc1
0.929

---

Measured log10 of Ki in nM, listed per entry.
# test_target: CA IX (Homo sapiens)
# protocol_summary: biochemical
# recorded_conditions: experimental value from the library Ki (IDs A…, B…); values equal log10 of Ki in nM
No unit in the answer, please; the number alone is enough.

# annotated cases, reported log10 of Ki in nM shown
structure_string	log10 of Ki in nM
NS(=O)(=O)c1ccc(NC(=S)N[C@@H]2O[C@H](CO)[C@H](O)[C@H](O)[C@H]2O)cc1	0.845
COc1ccc(-c2cnc(C3CCC3)o2)cc1S(N)(=O)=O	0.491
NS(=O)(=O)c1ccc(CNC(=O)Cc2ccc(F)cc2)cc1	0.491
NS(=O)(=O)c1ccc(C(=O)NCCc2ccc(O)c(O)c2)cc1	1.230

Shifting focus to the compound that follows.
// fetch log10 of Ki in nM given entry NS(=O)(=O)c1ccc(-c2cnc(C3CCC3)o2)cc1
0.813

---

# test_target: CA IX (Homo sapiens, UniProt Q16790)
# protocol_summary: biochemical
# recorded_conditions: experimental value from the library Ki (IDs A…, B…); values equal log10 of Ki in nM; read-out: pKi (exp.) (converted)
Please assign condition not met whenever Ki is at or above 80 nM, and condition met whenever it is below.

structure_string	test_target	assigned_class
C[C@@H](Sc1nc(-c2ccc(Cl)c(F)c2)c(C#N)c(=O)[nH]1)C(=O)Nc1ccc(S(N)(=O)=O)cc1	CA IX (Homo sapiens, UniProt Q16790)	condition met
CC(=O)OC[C@H]1O[C@H](SCc2nnn(-c3ccc(S(N)(=O)=O)cc3)c2C#CCO)[C@@H](OC(C)=O)[C@H](OC(C)=O)[C@@H]1OC(C)=O	CA IX (Homo sapiens, UniProt Q16790)	condition not met
NS(=O)(=O)OC[C@H]1O[C@H](O)[C@H](O)[C@@H](O)[C@H]1O	CA IX (Homo sapiens, UniProt Q16790)	condition met
NOS(=O)(=O)N[C@H]1C=C[C@H](O)[C@@H](CO)O1	CA IX (Homo sapiens, UniProt Q16790)	condition not met
CCO[C@H]1Oc2ccccc2C(=O)[C@H]1/C=N\c1ccc(S(=O)(=O)Nc2cc(C)on2)cc1	CA IX (Homo sapiens, UniProt Q16790)	condition met

Does this molecule meet the criterion Ki < 80 nM? Nc1nc(N)c2nc(CNCCc3ccc(S(=O)(=O)O)cc3)cnc2n1
condition not met

Does this molecule meet the criterion Ki < 80 nM? CCOc1ccc(S(=O)(=O)N2CCOCC2)cc1-c1nnc2c(n1)c(C)nn2C
condition met

Does this molecule meet the criterion Ki < 80 nM? CC1=CC(C)C=C(C)N1Cc1ccc(S(N)(=O)=O)cc1
condition met

Source of measurements: paper PMC6151961
